Study system: G protein-coupled receptor kinase 6 (Homo sapiens) (UniProt P43250);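 further: values are averaged percent inhibition of GRK6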
Sequence (P43250 whole entry, looked up): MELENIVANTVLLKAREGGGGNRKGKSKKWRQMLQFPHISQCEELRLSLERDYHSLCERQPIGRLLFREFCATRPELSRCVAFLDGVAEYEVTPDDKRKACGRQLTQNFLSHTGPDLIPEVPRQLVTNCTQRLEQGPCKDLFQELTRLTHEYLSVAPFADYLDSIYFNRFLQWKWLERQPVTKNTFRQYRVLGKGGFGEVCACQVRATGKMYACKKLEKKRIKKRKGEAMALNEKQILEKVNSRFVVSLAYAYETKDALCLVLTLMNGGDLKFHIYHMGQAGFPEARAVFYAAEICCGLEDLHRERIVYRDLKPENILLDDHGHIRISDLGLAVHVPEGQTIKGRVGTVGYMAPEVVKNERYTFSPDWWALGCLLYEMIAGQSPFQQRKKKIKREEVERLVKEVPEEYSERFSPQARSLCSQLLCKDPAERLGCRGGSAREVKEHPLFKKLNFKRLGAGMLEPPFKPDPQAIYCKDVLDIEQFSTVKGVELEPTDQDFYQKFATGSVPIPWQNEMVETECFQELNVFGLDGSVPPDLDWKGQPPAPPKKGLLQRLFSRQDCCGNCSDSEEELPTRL
Test context: at 1 µM
Endpoint: inhibition (%)
Number in %, nothing else.

Name the recorded inhibition for "Nc1nc(-c2cccc(Cl)c2)c(-c2ccc3ncccc3n2)s1" .
15.4

Cool, now "CCc1nn2ncccc2c1-c1ccnc(NC2CC2)n1"
4.64

Another compound to look at: "COc1cccc(-n2ncc3c(N/N=C/c4ccc(F)cc4)ncnc32)c1"
7.7

Can you check "COc1cc(N2CCN(C(C)C)CC2)ccc1Nc1nc(Nc2ccc(F)cc2C(N)=O)c2cc[nH]c2n1" next?
14.3

Do the same for "Clc1ccc(-c2nn3ncccc3c2-c2ccnc(Nc3ccccc3)n2)cc1" please
1.72

Do the same for "CN1CCC(n2cnc(-c3ccc(F)cc3)c2-c2ccnc(N)n2)CC1" please
2.25

Follow-up item: "Fc1ccc(-c2nn3ccccc3c2-c2ccncc2)cc1"
-0.76

Subsequent entry: "COc1ccc(-c2oc3ncnc(N)c3c2-c2ccc(NC(=O)Nc3cc(C(F)(F)F)ccc3F)cc2)cc1"
12.7

Next up: "COc1ccc(-c2cc(-c3c[nH]nc3-c3ccccn3)ccn2)cc1"
8.91

And for CC1=C(C(=O)Nc2cc(Cl)c3[nH]ncc3c2)C(c2ccc(C(F)(F)F)cc2)CC(=O)N1 (stereo unspecified) ?
13.4

Now this one: "COc1ccc2[nH]c3c4[nH]c5ccc(OC)cc5c4c4c(c3c2c1)C(=O)NC4=O"
41.2
